As shown below, each of these molecules has a reported melting point value.

Record excerpt, results attached:
So what does the record say about melting point for Nc1ccc(F)c(-n2cc(C(=O)O)c(=O)c3cc(F)c(F)c(Cl)c32)n1 ?
228 to 230 °C

Okay, and Cc1cc(-c2cc(C(F)F)nn2-c2ccc(S(C)(=O)=O)c(F)c2)ccc1-c1cscn1 ?
123 °C

Okay, and Cc1cc(C)cc(OCC(O)CCN2CCN(c3ccccc3)CC2)c1 (centres undefined) ?
88 to 90 °C

Okay, and COc1nc2cccc(C(=O)O)c2n1Cc1ccc(-c2ccccc2-c2nnn[nH]2)cc1 ?
208 to 209 °C

Okay, and C=CCOc1ccc(C(=O)C=Cc2cc(OC)c(CCCCCC)c(OC)c2)cc1 ?
77.9 to 78.2 °C

Okay, and COCc1nc2c(NCc3c(C)cccc3C)cc(C(=O)O)cc2n1C ?
269 to 272 °C

Okay, and O=C1Nc2ccc(Cl)cc2C(c2ccccc2)N1C1CCN(Cc2ccccc2)CC1 (centres undefined) ?
> 230 °C

Okay, and Cc1ccc2oc(C(O)[C@H](C)NC(=O)OCc3ccccc3)nc2c1 (some centres undefined) ?
134 to 135 °C

Continuing:
So what does the record say about melting point for Cn1c2cc(Cl)ccc2c(=O)c2c(Br)cccc21 ?
223 to 225 °C

###

As shown below, each of these compounds has a reported melting point value.

So what does the record say about melting point for CC(C)CC(NC(=O)C1CCCN1C(=O)OCc1ccccc1)OCC(=O)O (centres undefined) ?
118 to 120 °C

Okay, and CN1CCN(c2ccc(N/C=C3\C(=O)NC(=O)c4ccc(C(=O)O)cc43)cc2)CC1 ?
278 to 280 °C

Okay, and O=c1[nH]c2cc(Cl)ccc2c(O)c1Sc1nc2ccccc2s1 ?
> 270 °C

Okay, and COc1ccc(NCC(=O)N2CCC(Oc3ccc(Cl)cc3)CC2)cc1 ?
127 to 130 °C

###

As shown below, each of these compounds has a reported melting point value.

So what does the record say about melting point for C#Cc1cc([C@@H](C)NC(=O)Nc2ccc(C(C)(C)C)cc2)ccc1NS(C)(=O)=O ?
88.4 to 89.4 °C

Okay, and CC(=O)N(NC(N)=S)c1ccc([N+](=O)[O-])cc1 ?
242 °C

Okay, and CCCCCCCCCCOc1ccc(-c2ccc(C#CCCC(C)OC(C)=O)cc2)cc1 (stereo not given) ?
80 to 82 °C

Okay, and O=C(O)C1Cc2c(c(Cl)cc3c(-c4ccccc4Cl)noc23)O1 (stereo not given) ?
220 to 222 °C

// next entry
So what does the record say about melting point for N#Cc1ccc(COc2cccc(C(=O)Nc3ccc(C#N)cc3)c2)cc1 ?
205 to 207 °C

###

As shown below, each of these compounds has a reported melting point value.

So what does the record say about melting point for O=C(Nc1cccnc1Cl)N1CCc2ccccc2CC1 ?
120 to 122 °C

Okay, and CC12C=CC(=O)C=C1CCC1C2CCC2(C)C(=O)CCC12 (stereo unspecified) ?
138 to 139 °C

Okay, and O=C(O)c1ccc2nc3ccccn3c(=O)c2c1 ?
> 310 °C

Okay, and O=C(Cl)N1CC(Oc2cccc(Br)c2)C1 ?
87 to 88 °C

Okay, and c1ccc(CN2CCC(COc3ccccc3)CC2)cc1 ?
56 to 57 °C

// next entry
So what does the record say about melting point for O=C(CSc1ccc(C2=NCC(c3cc(Cl)cc(Cl)c3)(C(F)(F)F)C2)cc1Cl)NCC(F)(F)F (stereo unspecified) ?
189 °C
